Measured ABUTH herbicidal rating values are reported for all entries that follow.
Tested on: ABUTH Velvetleaf
Experiment: Preemergence herbicidal evaluation, ABUTH
Format: in vivo, Abutilon theophrasti, Medic.
Design: scale not given here
Settings: preemergence, rate 0.032 kg/ha
Excerpt: The preemergence herbicidal activity of the test compounds of the present invention is exemplified by the following tests in which the seeds of a variety of monocotyledonous and dicotyledonous plants are separately mixed with potting soil and planted on top of approximately one inch of soil in separate pint cups. […] The treated cups are then placed on greenhouse benches, watered and cared for in accordance with conventional greenhouse procedures. […]
measurement kind: ABUTH herbicidal rating

1. C=CCOc1ccc(C)cc1-n1nnc2cc(F)c(-n3c(=O)cc(C(F)(F)F)n(C)c3=O)cc21 [Example 42]    9.0
2. C#CCOC(=O)COc1ccc(C)cc1-n1nnc2cc(F)c(-n3c(=O)cc(C(F)(F)F)n(C)c3=O)cc21 [Example 40]    9.0
3. Cc1ccc(O)cc1-n1nnc2cc(F)c(-n3c(=O)cc(C(F)(F)F)n(C)c3=O)cc21 [Example 32]    0.0
4. COC(=O)COc1ccccc1-n1nnc2cc(F)c(-n3c(=O)cc(C(F)(F)F)n(C)c3=O)cc21 [Example 35]    4.0
5. Cc1ccc(OCC(=O)O)cc1-n1nnc2cc(F)c(-n3c(=O)cc(C(F)(F)F)n(C)c3=O)cc21 [Example 37]    0.0
6. COc1ccc(C)c(-n2nnc3cc(F)c(-n4c(=O)cc(C(F)(F)F)n(C)c4=O)cc32)c1 [Example 22]    9.0
